target: DBH (Bos taurus); experiment: in vitro DBH inhibition (conversion of tyramine to octopamine, spectrophotometric at 330 nm)
Sequence (P15101 whole entry): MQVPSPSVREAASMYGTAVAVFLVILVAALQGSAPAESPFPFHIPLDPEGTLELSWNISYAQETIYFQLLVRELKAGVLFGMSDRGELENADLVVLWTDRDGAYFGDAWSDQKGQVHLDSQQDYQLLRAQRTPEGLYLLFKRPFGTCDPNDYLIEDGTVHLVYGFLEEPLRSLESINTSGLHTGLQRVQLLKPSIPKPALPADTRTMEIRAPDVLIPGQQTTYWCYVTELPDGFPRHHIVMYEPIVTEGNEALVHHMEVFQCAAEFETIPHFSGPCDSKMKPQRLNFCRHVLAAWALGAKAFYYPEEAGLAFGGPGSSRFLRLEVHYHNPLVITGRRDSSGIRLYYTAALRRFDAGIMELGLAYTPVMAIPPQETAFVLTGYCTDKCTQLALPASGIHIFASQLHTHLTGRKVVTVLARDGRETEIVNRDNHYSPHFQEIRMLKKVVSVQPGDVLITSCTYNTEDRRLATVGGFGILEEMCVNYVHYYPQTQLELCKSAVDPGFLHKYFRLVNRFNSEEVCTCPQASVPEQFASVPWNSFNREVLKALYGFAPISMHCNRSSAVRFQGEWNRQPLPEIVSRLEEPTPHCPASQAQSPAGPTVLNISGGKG
pIC50: −log10 of the molar value.
REPORTED_METRIC: pIC50

molecular_string=Fc1cc(F)cc(Cc2cccnc2S)c1 target_system="DBH (Bos taurus)" reported_metric=pIC50 observed=3.87

Hello, the source for this data is patent US4839371A, in case you need it.
